Reference source: PubChem BioAssay

- assay summary: HepG2 liver cancer cell viability effects, profiling panel, resazurin fluorescence, 24 h, PK04 Diversity Set (AID 1172); also: test concentration not given here
- run conditions: higher = more signal
Outcome: criterion met for z-score of at least 0.4; criterion not met for anything lower.

API: above_or_equal(metric=z-score, cutoff=0.4) for item COCCOC(=O)N1C(=O)[C@@]2(c3cc(C#CCNC(N)=O)ccc31)[C@H](c1ccccc1OCCO)N1[C@H](c3ccccc3)[C@H](c3ccccc3)OC(=O)[C@H]1[C@@H]2C(=O)Nc1nc2ccccc2s1
criterion not met

API: above_or_equal(metric=z-score, cutoff=0.4) for item C=C(COC)C(=O)CC[C@@H](OC(=O)c1ccccc1-c1ccccc1C(=O)O)c1cccc(OCCO)c1
criterion met

API: above_or_equal(metric=z-score, cutoff=0.4) for item COCCOC(=O)N1C(=O)[C@@]2(c3cc(C#CC4(O)CCCCCC4)ccc31)[C@H](c1ccccc1OCCO)N1[C@H](c3ccccc3)[C@H](c3ccccc3)OC(=O)[C@H]1[C@@H]2C(=O)Nc1nc2ccccc2s1
criterion not met

API: above_or_equal(metric=z-score, cutoff=0.4) for item CC(C)CCC[C@@H](C)[C@H]1CC[C@@]2(C)C3=C(CC[C@]12C)[C@@]1(C)CC[C@H](OC(=O)CCl)C(C)(C)C1CC3 (some centres undefined)
criterion met

API: above_or_equal(metric=z-score, cutoff=0.4) for item [N-]=[N+]=NCc1ccccc1C[C@@]1(C(=O)NCc2ccccc2)N=C(c2ccc(OCCCO)cc2)O[C@@H]1c1ccccc1
criterion met

API: above_or_equal(metric=z-score, cutoff=0.4) for item C=CCN1C(=O)[C@]2(O[C@H](CCn3cc([C@H](O)c4ccccc4)nn3)[C@@H]([Si](C)(C)c3ccc(OC)cc3)[C@@H]2C)c2cc(N3CCOC3=O)ccc21
criterion not met

API: above_or_equal(metric=z-score, cutoff=0.4) for item COc1ccc([Si](C)(C)[C@@H]2[C@@H](CC(=O)N3CCC[C@H]3CO)O[C@]3(C(=O)N(Cc4ccc(N5CCC5=O)cc4)c4ccccc43)[C@H]2C)cc1
criterion not met

API: above_or_equal(metric=z-score, cutoff=0.4) for item C#CCN1C(C(=O)OCC)OC[C@H]1c1ccccc1 (some centres undefined)
criterion met

API: above_or_equal(metric=z-score, cutoff=0.4) for item COC(=O)C(CC#Cc1ccc2c(c1)[C@]1(C(=O)N2)[C@H](C(=O)O)[C@H]2C(=O)O[C@H](c3ccccc3)[C@H](c3ccccc3)N2[C@@H]1c1ccc(OCCO)cc1)C(=O)OC
criterion met

API: above_or_equal(metric=z-score, cutoff=0.4) for item C[N+](C)(C)CCCC[C@@H]1NC(=O)[C@@H]2C[C@H](C(=O)NCCCCCNC(=O)CS)[C@H](c3ccc(O)cc3)N2C1=O
criterion not met

API: above_or_equal(metric=z-score, cutoff=0.4) for item COCCOC(=O)N1C(=O)[C@@]2(c3cc(C#CCNC(N)=O)ccc31)[C@H](C(=O)NC[C@H](O)c1ccccc1)[C@H]1C(=O)O[C@H](c3ccccc3)[C@H](c3ccccc3)N1[C@@H]2c1ccc(O)cc1
criterion not met

API: above_or_equal(metric=z-score, cutoff=0.4) for item COC(=O)C1=CC(c2ccc(CO)cc2)=CC(c2cccs2)N(C)C=C1C(=O)OC (centres undefined)
criterion not met

API: above_or_equal(metric=z-score, cutoff=0.4) for item O=C(NO)[C@]1(Cc2ccccc2)N=C(c2ccc(OCCCO)cc2)O[C@@H]1c1ccccc1
criterion met

API: above_or_equal(metric=z-score, cutoff=0.4) for item COCCCN1C(=O)[C@@]2(Cc3ccccc31)c1ccccc1C(=O)N(Cc1ccccc1Cl)[C@H]2c1ccc(CO)cc1
criterion not met

API: above_or_equal(metric=z-score, cutoff=0.4) for item O=C(NCC(F)(F)F)[C@@H]1c2ccccc2C(=O)N(C2Cc3ccccc3C2)[C@H]1c1ccc(CO)cc1
criterion met

API: above_or_equal(metric=z-score, cutoff=0.4) for item NCCCCCCNC(=O)[C@@H]1C[C@@H]2C(=O)N[C@@H](Cc3ccccc3)C(=O)N2[C@@H]1c1ccc(O)cc1
criterion not met

API: above_or_equal(metric=z-score, cutoff=0.4) for item CCN(CC)c1ccc(N2CC=CC34O[C@@H]5C=CCOC(=O)[C@@H]5[C@H]3C(=O)N(C(CO)C(C)C)[C@@H]4C2=O)cc1 (some centres undefined)
criterion met

API: above_or_equal(metric=z-score, cutoff=0.4) for item CC(C)CNC(=O)[C@@H]1c2ccccc2C(=O)N(Cc2ccc(OC(F)(F)F)cc2)[C@H]1c1ccc(CO)cc1
criterion met

API: above_or_equal(metric=z-score, cutoff=0.4) for item CC(C)[Si](C#C[Si](C(C)C)(C(C)C)C(C)C)(O[C@H](C)c1cn([C@H](C)c2ccccc2)nn1)C(C)C
criterion met

API: above_or_equal(metric=z-score, cutoff=0.4) for item CO[C@H]1O[C@H](CO)[C@@H](OC(=O)Nc2ccccc2)[C@H](OC(=O)Nc2ccccc2-c2ccccc2)[C@@H]1OC(=O)Nc1ccccc1-c1ccccc1
criterion not met

API: above_or_equal(metric=z-score, cutoff=0.4) for item C=CCC(OC(C)=O)[C@@H]1[C@@H](N(Cc2ccc(-c3ccccc3)cc2)C(=O)c2ccc(-c3ccccc3)cc2)c2cc(OCCCO)ccc2N1C(=O)c1ccc(-c2ccccc2)cc1 (some centres undefined)
criterion met

API: above_or_equal(metric=z-score, cutoff=0.4) for item CO[C@H]1O[C@H](CO)[C@@H](OC(=O)Nc2ccccc2)[C@H](OC(=O)Nc2ccc3c(c2)OCO3)[C@H]1OC(=O)Nc1ccc2c(c1)OCO2
criterion not met

API: above_or_equal(metric=z-score, cutoff=0.4) for item CC(=O)NCCCC[C@@H]1NC(=O)[C@@H]2C[C@H](C(=O)O)[C@H](c3cccc(OCCO)c3)N2C1=O
criterion not met

API: above_or_equal(metric=z-score, cutoff=0.4) for item C=C(CCCC)/C(=C/C[C@@H](OC(=O)c1ccncc1)c1ccc(OCCO)cc1)c1cnc2ccccc2c1
criterion not met

----------
Provide the recorded composite z-score for the entries that follow.
- target or system: Carbonic anhydrase 2 (Homo sapiens)
- assay summary: CAII small-molecule binders, profiling panel, biochemical, small-molecule microarray, Alexa647-labelled CAII (AID 1122)
- run conditions: CAII-A647 binding fluorescence, higher = more signal
Reply briefly: the number, and no unit.

Need composite z-score of C=CCOC(=O)[C@H]1[C@@H]2C(=O)O[C@@H](c3ccccc3)[C@@H](c3ccccc3)N2[C@@H](c2ccc(OCCOC(=O)[C@H]3C[C@H]4C(=O)N5CCC[C@H]5C(=O)N4[C@H]3c3cccc(OCCO)c3)cc2)[C@]12C(=O)Nc1ccccc12 , thanks.
0.466

Need composite z-score of O=C(N1CCCCC1)[C@@]1(Cc2ccccc2)N=C(c2ccc(OCCCO)cc2)O[C@H]1c1ccccc1 , thanks.
0.797

Need composite z-score of C=C(/C(=C/C[C@H](OC(C)=O)c1cccc(OCCO)c1)c1cc(C(=O)OC)ccc1OC)C(C)C , thanks.
0.38

Need composite z-score of Cc1ccc(N2C(=O)c3ccccc3[C@](C)(C(=O)NC3CC3)[C@@H]2c2ccc(CO)cc2)nc1 , thanks.
0.78

Need composite z-score of CC(C)(C)OC(=O)CC[C@@]12N=C(c3ccc(OCCCO)cc3)O[C@@H]1c1ccccc1CN(Cc1ccccc1)C2=O , thanks.
0.418

Need composite z-score of O=C(NO)[C@]1(Cc2ccccc2)N=C(c2ccc(OCCCO)cc2)O[C@@H]1c1ccccc1 , thanks.
0.678

Need composite z-score of NC(=O)NCC#Cc1ccc2c(c1)[C@]1(C(=O)N2)[C@H](c2ccc(OCCO)cc2)N2[C@H](c3ccccc3)[C@H](c3ccccc3)OC(=O)[C@H]2[C@@H]1C(=O)Nc1nc2ccccc2s1 , thanks.
0.0165

Need composite z-score of CO[C@H]1O[C@H](CO)[C@@H](OC(=O)Nc2ccccc2)[C@H](OC(=O)Nc2ccc3c(c2)OCO3)[C@H]1OC(=O)Nc1ccc2c(c1)OCO2 , thanks.
0.599

Need composite z-score of CCCNC(=O)[C@@H]1c2ccccc2C(=O)N(Cc2cc(C(F)(F)F)cc(C(F)(F)F)c2)[C@H]1c1ccc(CO)cc1 , thanks.
0.422

Need composite z-score of NCCCCCCNC(=O)[C@@H]1C[C@@H]2C(=O)N[C@@H](Cc3ccccc3)C(=O)N2[C@@H]1c1ccc(O)cc1 , thanks.
0.65

Need composite z-score of C=C(COC)C(=O)CC[C@H](OC(=O)c1ccccc1-c1ccccc1C(=O)O)c1ccccc1OCCO , thanks.
0.59

Need composite z-score of CC(C)(C)OC(=O)CC[C@]1(C(=O)NCc2ccccc2)COC(c2ccc(OCCCO)cc2)=N1 , thanks.
0.673

Need composite z-score of COC(=O)C1=CC(c2ccc(CO)cc2)=CC(C2CC2)N(C)C=C1C(=O)OC (stereo not drawn) , thanks.
0.874

Need composite z-score of C=CCNC(=O)[C@@H]1[C@H]2C(=O)O[C@H](c3ccccc3)[C@H](c3ccccc3)N2[C@H](c2ccc(O)cc2)[C@@]12C(=O)Nc1ccccc12 , thanks.
0.55

Need composite z-score of COCCCN1C(=O)[C@@]2(Cc3ccccc31)c1ccccc1C(=O)N(Cc1ccccc1Cl)[C@H]2c1ccc(CO)cc1 , thanks.
0.106

Need composite z-score of COC(=O)c1c(CC[C@@H](CO)NC(=O)Nc2ccc(OC)cc2)oc(C(=O)Cc2ccccc2)c1C(=O)OC , thanks.
0.656

Need composite z-score of C=CC[C@@]1(C(=O)NCc2ccccc2)N=C(c2ccc(OCCCO)cc2)O[C@@H]1c1ccccc1 , thanks.
0.493

Need composite z-score of O=C1c2ccccc2C(=O)c2cc([C@H]3Oc4ccccc4S(=O)(=O)N4CCC[C@@H]34)ccc21 , thanks.
-0.157

Need composite z-score of O=C1N(CCS(=O)(=O)c2ccccc2)Cc2ccccc2[C@@H]2OC(c3ccc(OCCCO)cc3)=N[C@]12Cc1ccccc1 , thanks.
0.742

Need composite z-score of O=C1c2ccccc2[C@](Cc2ccccc2I)(C(=O)O)[C@H](c2ccc(CO)cc2)N1Cc1ccccc1Cl , thanks.
0.608

Need composite z-score of COc1ccc([Si](C)(C)[C@@H]2[C@@H](CC(=O)N3CCC[C@H]3CO)O[C@]3(C(=O)N(Cc4ccc(N5CCC5=O)cc4)c4ccccc43)[C@H]2C)cc1 , thanks.
0.415

Need composite z-score of CC(C)CNC(=O)[C@@H]1c2ccccc2C(=O)N(Cc2ccc(OC(F)(F)F)cc2)[C@H]1c1ccc(CO)cc1 , thanks.
0.572

Need composite z-score of C=CCC(OC(C)=O)[C@@H]1[C@@H](N(Cc2cc3ccccc3o2)C(=O)c2ccc(-c3ccccc3)cc2)c2cc(OCCCO)ccc2N1C(=O)c1ccc(-c2ccccc2)cc1 (stereo partly drawn) , thanks.
0.301

Need composite z-score of C[N+](C)(C)CCCCNC(=O)[C@@H]1C[C@@H]2C(=O)NCC(=O)N2[C@@H]1c1cccc(OCCO)c1 , thanks.
0.434

Need composite z-score of CO[C@H]1O[C@H](CO)[C@@H](OC(=O)Nc2ccccc2)[C@H](OC(=O)Nc2ccccc2-c2ccccc2)[C@@H]1OC(=O)Nc1ccccc1-c1ccccc1 , thanks.
0.419

Need composite z-score of COCCOC(=O)N1C(=O)[C@@]2(c3cc(C#CCNC(N)=O)ccc31)[C@H](C(=O)NC[C@H](O)c1ccccc1)[C@H]1C(=O)O[C@H](c3ccccc3)[C@H](c3ccccc3)N1[C@@H]2c1ccc(O)cc1 , thanks.
0.0718

Need composite z-score of C=C(CCCC)/C(=C/C[C@@H](OC(=O)c1ccncc1)c1ccc(OCCO)cc1)c1cnc2ccccc2c1 , thanks.
0.948

Need composite z-score of CCCCCCC#C[Si](O[C@H](c1ccccc1)c1cn(Cc2ccccc2)nn1)(C(C)C)C(C)C , thanks.
0.273
